# System: OVCAR-5 ovarian
# test_protocol: NCI-60 one-dose screen, 48 h
# protocol_conditions: 10 µM
# Method: Growth inhibition of the OVCAR-5 human tumor cell line is measured as a screen for anti-cancer activity. Cells are grown in 96 well plates and exposed to the test compound for 48 hours. Compounds are tested at a single concentration, which is 10^-5 M for most compounds. The reported endpoint is percent growth (GI% or GIPRCNT), where numbers from 0 - 100% represent growth inhibition, and numbers from -100% - 0 represent cell death. For example, a value of 40 represents 60% growth inhibition. […]
Compounds without any hit were thinned out: in the full panel of roughly 83,000, 20% have a hit. The source made the active and inactive calls. How the source made its calls: active means growth percent below 10; inactive means the rest.
Tick one outcome: true (1) for active, false (0) for inactive

Please review the entries below; each comes with its answer.
O=C1c2ccccc2CCC1(Br)Br :: false (0)
CN(C)CCNc1cccc2sc3ccc(O)cc3c(=O)c12 :: false (0)
ClCCn1c(CCl)nc2ccc(Cl)cc21 :: true (1)

Ask: Please state the recorded outcome for this compound: Cc1cc(O)c2c(c1O)C(=O)C13C(=C2O)C(=O)C2C(O)C1C1C(O)C3C(=O)C3=C(O)c4c(O)cc(C)c(O)c4C(=O)C321 (stereo unspecified)
Reply: true (1)

Ask: Please state the recorded outcome for this compound: `CCC(C)(c1ccc(O)c(C)c1)c1ccc(O)c(C)c1`
Reply: false (0)

Ask: Please state the recorded outcome for this compound: `C=C1N(C)c2ccc(Cl)cc2C1(C)C`
Reply: false (0)

Where do the numbers come from? From PubChem BioAssay (NCI).
